FYI, the data here is from patent US6075121A.

- Test system: trypsin
- Construct: gene PRSS1
- Protocol: Proteolysis of peptoids and peptides by trypsin
- Format: in vitro ADME
- Test settings: trypsin (isolated protease) in Tris buffer; trypsin, 3 hours, 37° C., pH 8.0; read-out: % Area at 280 nm Remaining of Parent Peak by RP-HPLC
Measurement type: remaining at 3 h, 0.48 mg/mL

Task: Supply recorded remaining at 3 h, 0.48 mg/mL for CC(C)CN(CC(=O)N(CC(=O)O)CC(=O)N(CC(=O)N(CCO)CC(=O)N(CCN)CC(=O)NCC(=O)O)Cc1ccccc1)C(=O)OCC1c2ccccc2-c2ccccc21 here.
Result: 100%

---

- Tested on: chymotrypsin
- Protocol: Proteolysis of peptoids and peptides by chymotrypsin
- Type: in vitro ADME
- Test settings: chymotrypsin (isolated protease) in Tris buffer; chymotrypsin, 3 hours, 37° C., pH 8.0; read-out: % Area at 280 nm Remaining of Parent Peak by RP-HPLC
Measurement type: remaining at 3 h, 0.48 mg/mL (%)
Give just the number in %; leave the unit off.

Task: Please report the measured remaining at 3 h, 0.48 mg/mL for CC(C)CN(CC(=O)N(CC(=O)O)CC(=O)N(CC(=O)N(CCO)CC(=O)N(CCN)CC(=O)NCC(=O)O)Cc1ccccc1)C(=O)OCC1c2ccccc2-c2ccccc21 tested on chymotrypsin.
Result: 100
